Cited source for all entries: patent US20060116368A1

Assign inhibition at 9 µM to each entry below.
# experimental-target: Human Vanilloid Receptor 1 (Homo sapiens, UniProt Q8NER1)
# Construct: expressed in transfected cells; host or cells: HEK 293
# method-summary: Human VR1 functional assay using FLIPR, Protocol 1
# Assay type: cell-based
# applied-conditions: HEK293, 9 uM, inhibition of capsaicin (EC80)-induced calcium response, HEK 293 cells transfected with hVR1, read-out: h % I (9 uM)
Numbers only, in %.

Answered cases to consult:
• O=C1COc2ncc(NC(=O)C3CCN(c4cccc(C(F)(F)F)c4)CC3)cc2N1 = 45.7
• O=C1COc2ccc(NC(=O)C3CCN(c4c(F)c(F)c(Br)c(F)c4F)CC3)cc2N1 = 87
• Cc1cccnc1N1CCC(C(=O)Nc2ccc3c(c2)NC(=O)CO3)CC1 = 39

# batch size: 5; output inhibition at 9 µM per entry
1. O=C1COc2ccc(NC(=O)C3CCN(c4nc5ccccc5s4)CC3)cc2N1
2. COc1cccc(N2CCC(C(=O)Nc3ccc4c(c3)NC(=O)CO4)CC2)c1
3. O=C(Nc1cccc2cn[nH]c12)C1CCN(c2cccc(C(F)(F)F)c2)CC1
4. Cn1cnc2c(N3CCC(C(=O)Nc4cccc5[nH]ccc45)CC3)ncnc21
5. CN(C)c1nc(NC(=O)C2CCN(c3cccc(C(F)(F)F)c3)CC2)ncc1-c1ccccc1

1: 20.7; 2: 79.3; 3: 72; 4: 16; 5: 14

----------
# experimental-target: Human Vanilloid Receptor 1 (Homo sapiens, UniProt Q8NER1)
# Construct: expressed in transfected cells; host or cells: HEK 293
# method-summary: Human VR1 functional assay using FLIPR, Protocol 1
# Type: cell-based
# applied-conditions: HEK293, 12.2 uM, test compound-induced calcium response (agonist mode), HEK 293 hVR1, read-out: % maximal reponse to capsaicin (12.2 uM)
Assign Emax at 12.2 µM to each entry below.
Give bare numbers, in %.

* Cc1nsc2ccc(NC(=O)C3CCN(c4cccc(C(F)(F)F)c4)CC3)cc12 | 74
* COc1ccc(NC(=O)C2CCN(c3cccc(C(F)(F)F)c3)CC2)cn1 | 74
* O=C1Cc2cc(NC(=O)C3CCN(c4cccc(C(F)(F)F)c4)CC3)ccc2N1 | 49

Here is another compound to look at.
Emax at 12.2 µM for `O=C1Cc2ccc(NC(=O)C3CCN(c4cccc(C(F)(F)F)c4)CC3)cc2N1` ?
62.8

----------
# experimental-target: hVR1 receptors (Homo sapiens)
# Sequence (Q8NER1 whole entry): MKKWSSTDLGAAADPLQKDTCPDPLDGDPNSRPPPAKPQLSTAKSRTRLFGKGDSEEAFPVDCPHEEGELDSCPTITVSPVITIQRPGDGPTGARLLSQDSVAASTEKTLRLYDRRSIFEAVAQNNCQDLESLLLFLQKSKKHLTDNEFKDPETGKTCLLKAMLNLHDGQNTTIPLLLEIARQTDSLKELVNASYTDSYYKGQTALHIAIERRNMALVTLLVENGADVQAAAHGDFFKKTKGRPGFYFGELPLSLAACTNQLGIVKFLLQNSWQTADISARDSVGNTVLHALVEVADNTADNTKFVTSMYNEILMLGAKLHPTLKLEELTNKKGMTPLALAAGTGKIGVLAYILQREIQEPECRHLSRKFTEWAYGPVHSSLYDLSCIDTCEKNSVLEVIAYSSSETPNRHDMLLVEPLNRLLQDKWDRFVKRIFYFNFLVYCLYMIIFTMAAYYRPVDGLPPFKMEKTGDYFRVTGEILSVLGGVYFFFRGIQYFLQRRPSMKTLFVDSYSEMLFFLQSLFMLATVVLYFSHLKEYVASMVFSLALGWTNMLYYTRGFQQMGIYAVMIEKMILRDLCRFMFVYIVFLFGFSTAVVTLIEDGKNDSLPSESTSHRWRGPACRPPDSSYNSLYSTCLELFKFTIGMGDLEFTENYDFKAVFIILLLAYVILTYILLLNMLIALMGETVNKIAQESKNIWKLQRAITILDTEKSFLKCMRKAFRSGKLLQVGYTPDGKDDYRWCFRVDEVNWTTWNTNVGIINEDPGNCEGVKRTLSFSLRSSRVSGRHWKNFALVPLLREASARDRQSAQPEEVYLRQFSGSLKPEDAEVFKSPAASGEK
Assign Ki to each entry below.
Answers are plain numbers, in nM.

- O=C1COc2ccc(NC(=O)C3CCN(c4cccc(Cl)c4)CC3)cc2N1: 34
- O=C1COc2ccc(NC(=O)C3CCN(c4ccccc4Cl)CC3)cc2N1: 93
- Cc1ccccc1N1CCC(C(=O)Nc2ccc3c(c2)NC(=O)CO3)CC1: 61

# batch size: 2; output Ki per entry
1. O=C(Nc1cccc2[nH]ccc12)C1CCN(c2cccc(C(F)(F)F)c2)CC1
2. O=C1COc2ccc(NC(=O)C3CCN(c4cc(F)cc(F)c4)CC3)cc2N1

1. 134
2. 137

----------
Assign Emax at 12.2 µM to each entry below.
# experimental-target: Human Vanilloid Receptor 1 (Homo sapiens, UniProt Q8NER1)
# Construct: expressed in transfected cells; host or cells: HEK 293
# method-summary: Human VR1 functional assay using FLIPR, Protocol 1
# Assay type: cell-based
# applied-conditions: HEK293, 12.2 uM, test compound-induced calcium response (agonist mode), HEK 293 hVR1, read-out: % maximal reponse to capsaicin (12.2 uM)
Numbers only, in %.

* O=C(Nc1ccc2nc(S)sc2c1)C1CCN(c2cccc(C(F)(F)F)c2)CC1 | 35.5
* Cn1ncc2cc(NC(=O)C3CCN(c4cccc(C(F)(F)F)c4)CC3)ccc21 | 68.5
* O=C(Nc1cccc2cc[nH]c12)C1CCN(c2cccc(C(F)(F)F)c2)CC1 | 40

Emax at 12.2 µM for `O=C(Nc1ncnc2sccc12)C1CCN(c2cccc(C(F)(F)F)c2)CC1` ?
81
